assay: Static equilibrium solubility of HCQS in supercritical carbon dioxide (UV-vis spectrophotometer); format: physicochemical; conditions: supercritical carbon dioxide (scCO2) in an equilibrium cell, thermodynamic from solid, scCO2, 308 K, 210 bar; read-out: Equilibrium solubility, S
Where a name gives a salt, the structure may show the parent alone.
assay.endpoint: solubility thermodynamic at 1 h (µg/mL)
Give bare numbers, in µg/mL.

(Q) Would you kindly share the measured solubility thermodynamic at 1 h for CCN(CCO)CCCC(C)Nc1ccnc2cc(Cl)ccc12 (stereo not shown) [HCQS, Hydroxychloroquine sulfate] ?
(A) 93.9

###

assay: Static equilibrium solubility of HCQS in supercritical carbon dioxide (UV-vis spectrophotometer); assay type: physicochemical; conditions: thermodynamic from solid, scCO2, 318 K, 150 bar; read-out: Equilibrium solubility, S
Where a name gives a salt, the structure may show the parent alone.
assay.endpoint: solubility thermodynamic at 1 h (µg/mL)
Give bare numbers, in µg/mL.

(Q) Give its solubility thermodynamic at 1 h value. Item: CCN(CCO)CCCC(C)Nc1ccnc2cc(Cl)ccc12 (stereo not shown) [HCQS, Hydroxychloroquine sulfate]
(A) 80.6
